tested on: IGROV1 ovarian; assay: NCI tumour cell line growth inhibition, 48 h; in the data active = GI50 below about 0.43 µM; inactive = the rest
// classify into YES = active, NO = inactive

Known results for molecules:
| molecule | assayed-system | category-label |
| --- | --- | --- |
| COc1cc(CNCCN2C(=O)c3ccc4c5c(ccc(c35)C2=O)C(=O)N(CCNCc2cc(OC)c(OC)c(OC)c2)C4=O)cc(OC)c1OC | IGROV1 ovarian | YES |
| C#Cc1cccc(Nc2ncnc3ccc(OCCCCNCCS(C)(=O)=O)cc23)c1 | IGROV1 ovarian | NO |
| CN(C)CCCSc1ccccc1NC1=C(Cl)C(=O)C(Nc2ccccc2SCCCN(C)C)=C(Cl)C1=O | IGROV1 ovarian | NO |
| Cn1cc(-c2nc(-c3c[nH]c4ncccc34)cs2)c2ccccc21 | IGROV1 ovarian | NO |
| CC(=O)CC/C=C(\C)[C@H](O)[C@H](C)C(=O)O[C@H]1C[C@H](C)C=C2C=C[C@@]3(C)O[C@@H](O)CC(=O)[C@]3(C)[C@H]21 | IGROV1 ovarian | YES |

query: Please indicate how the test categorized `Cc1cnc2oc3ccc(O)cc3c2c1-c1ccccc1` .
result: NO

query: Please indicate how the test categorized `O=C(O)c1cc(=O)cc(C(=O)O)o1` .
result: NO

query: Please indicate how the test categorized COc1ccc(CCN(CC(=O)N(CC(N)=O)C2CCC[C@@H]2OCc2ccccc2)C(=O)CN(C(=O)CN(CCc2ccc(Cl)cc2)C(=O)CN(C(=O)CN(C)Cc2ccccc2F)[C@H](C)C2CCCCC2)[C@H](C)C2CCCCC2)cc1OC (some centres undefined) .
result: NO

query: Please indicate how the test categorized COc1cc(N2C(=O)[C@H](c3ccccc3)C2c2ccc(SC)cc2)cc(OC)c1OC (some centres undefined) .
result: YES

query: Please indicate how the test categorized `CN(C)CC(=O)Nc1ccc2ncnc(Nc3ccc(Oc4cccc(C(F)(F)F)c4)c(Cl)c3)c2c1` .
result: NO

query: Please indicate how the test categorized `NC1CCCCC1N.O=C1C=C/C(=C(/c2ccc(O)c(Br)c2)c2ccccc2S(=O)(=O)[O-])C=C1Br.O=C1C=C/C(=C(/c2ccc(O)c(Br)c2)c2ccccc2S(=O)(=O)[O-])C=C1Br.[Pt+4]` .
result: NO

query: Please indicate how the test categorized `CC1(C)N=C(N)N=C(N)N1c1ccc(Cl)cc1` .
result: NO

query: Please indicate how the test categorized `C=CC(=O)N1C[C@@H]2CCOc3c(Cl)c(-c4c(O)cccc4F)c(F)c4ncnc(c34)N2C[C@H]1C` .
result: NO

query: Please indicate how the test categorized `COc1ccc(C(=NN=C(N)N)c2ccc(OC)cc2)cc1` .
result: NO

----------
system: SNB-75 CNS; assay: NCI tumour cell line growth inhibition, 48 h
property-label: TGI (µM)
Form entry: value (µM) — number only.

Examples with answers:
| structure-string | units-of-measure | TGI |
| --- | --- | --- |
| COC(=O)c1cc2oc(/C=C3/SC(=S)N(N)C3=O)cc2n1Cc1ccccc1 | µM | 11.3 |
| O=C1c2cccnc2C(=O)c2c1c(C(=O)OCCN1CCCCC1)c1ccccn21 | µM | 0.188 |

Would you kindly look at the next entry?
query: Which TGI value is on record for `O=c1cnnc(N/N=C/c2ccccc2O)[nH]1` ?
result: 87.3

----------
test system: SK-MEL-2 melanoma; experiment: NCI tumour cell line growth inhibition, 48 h
TGI by entry:

Examples with answers:
| compound | TGI |
| --- | --- |
| CCC/C(Cl)=N/OC(=O)Nc1cc(C(F)(F)F)ccc1OC | 31.5 µM |
| Cn1c(=O)nc2n(-c3ccc(Cl)cc3)c3cc(Cl)ccc3nc-2c1=O | 5.63 µM |
| C=C(C)[C@@H]1CCC2=C[C@H](C/C(C)=C\C3=CC(C)=C(O3)[C@H]1O)OC2=O | > 100 µM |
| CC(c1ccc2c(c1)CCC1C2CC2OC23CC=CC(=O)[C@]13C)C1C[C@]2(C)O[C@]2(C)[C@H](O)O1 (stereo not given in full) | > 100 µM |
| CC12CCC(=O)N1c1cncnc1N2 (stereo not given) | > 10 µM |
| C[Si](C)(C)c1ccc(-c2c3ccc(-c4cc(Br)cc(Br)c4)nc3nc3nc(-c4cc(Br)cc(Br)c4)ccc23)cc1 | > 100 µM |
| O=C1Cc2nc(CO)c(CO)c(CO)c2CO1 | > 100 µM |
| CC(C)(C)c1cc(/C=N/NC(=O)c2ccccc2NC(=O)c2cccs2)c(O)c(C(C)(C)C)c1 | > 100 µM |
| CN(C)CCNC(=O)c1cc(Cl)cc2cc3ccccc3nc12 | 3.76 µM |

Would you kindly look at the next entry?
query: Which TGI value is on record for O=c1[nH]c(=O)n(C2CC(O)C(CO)O2)cc1C(F)(C(F)(F)F)C(F)(F)F (stereo not given) ?
result: > 100 µM

----------
system: HCC-2998 colon; experiment: NCI tumour cell line growth inhibition, 48 h
property-label: GI50

Examples with answers:
| compound | GI50 |
| --- | --- |
| CCOC(=O)C1=C(C)NC(=O)NC1CN1C(=O)c2ccccc2C1=O (stereo not drawn) | > 100 µM |
| NC1CCCCC1N.O=C1C=C/C(=C(/c2ccc(O)c(Br)c2)c2ccccc2S(=O)(=O)[O-])C=C1Br.O=C1C=C/C(=C(/c2ccc(O)c(Br)c2)c2ccccc2S(=O)(=O)[O-])C=C1Br.[Pt+4] | 4.66 µM |
| O=Nc1c(-c2c(O)[nH]c3cc(Br)ccc23)[nH]c2ccccc12 | 1.6 µM |
| N#CC1=C(N)NC(=S)NC12Nc1ccccc1S2 (stereo not drawn) | 33 µM |
| CC(C)(c1ccccc1)c1cc(O)c(C(C)(C)c2ccccc2)cc1O | 2.98 µM |

query: Which GI50 value is on record for `CN(C)CC(=O)Nc1ccc2ncnc(Nc3ccc(Oc4cccc(C(F)(F)F)c4)c(Cl)c3)c2c1` ?
result: 1.66 µM

query: Which GI50 value is on record for C=C1C(=O)O[C@H]2[C@H](OC(C)=O)[C@@H](C)CCCC3(C)OC3CCC3(CO3)[C@H](O)C[C@@H]12 (stereo partly drawn) ?
result: 1.99 µM

query: Which GI50 value is on record for COc1ccc(CCN(CC(=O)N(CC(N)=O)C2CCC[C@@H]2OCc2ccccc2)C(=O)CN(C(=O)CN(CCc2ccc(Cl)cc2)C(=O)CN(C(=O)CN(C)Cc2ccccc2F)[C@H](C)C2CCCCC2)[C@H](C)C2CCCCC2)cc1OC (stereo partly drawn) ?
result: 1.61 µM

----------
GI50 by entry:
tested on: UACC-62 melanoma; test: NCI tumour cell line growth inhibition, 48 h

Examples with answers:
| compound | GI50 |
| --- | --- |
| O=C1C(=C([O-])c2ccccc2)C(=O)c2ccccc21.O=C1C(=C([O-])c2ccccc2)C(=O)c2ccccc21.[Mn+2] | 5.48 µM |
| Cc1ccc(C=C2C(Cl)=C(Cl)C(Cl)=C2Cl)cc1 | 0.784 µM |
| CC(C)(c1ccccc1)c1cc(O)c(C(C)(C)c2ccccc2)cc1O | 1.71 µM |
| N#CC(C#N)=C1CCOc2ccc(F)cc21 | 11.3 µM |
| COc1ccc(C2CC(c3ccc(Nc4ccnc5cc(Cl)ccc45)cc3)=NN2C=O)cc1 (centres undefined) | 5.99 µM |

query: Which GI50 value is on record for `CN(C)CCCSc1ccccc1NC1=C(Cl)C(=O)C(Nc2ccccc2SCCCN(C)C)=C(Cl)C1=O` ?
result: 1.81 µM

query: Which GI50 value is on record for COc1ccc(CCN(CC(=O)N(CC(N)=O)C2CCC[C@@H]2OCc2ccccc2)C(=O)CN(C(=O)CN(CCc2ccc(Cl)cc2)C(=O)CN(C(=O)CN(C)Cc2ccccc2F)[C@H](C)C2CCCCC2)[C@H](C)C2CCCCC2)cc1OC (some centres undefined) ?
result: 1.42 µM

query: Which GI50 value is on record for `COc1cc(-c2nc3sc(C)cn3c2/C=C2\C(=O)Nc3ccccc32)c(Br)c(OC)c1OC` ?
result: 34 µM

query: Which GI50 value is on record for `O=c1c2ccccc2c(/C=N\NC2=NCCN2)c2oc3ccccc3n12` ?
result: 16.3 µM

----------
TGI by entry:
system: 786-0 renal; test: NCI tumour cell line growth inhibition, 48 h

| structure-string | obs-value |
| --- | --- |
| O=C(c1ccccc1Cl)n1oc2ccccc2c1=O | > 100 µM |
| O=Nc1c(-c2c(O)[nH]c3cc(Br)ccc23)[nH]c2ccccc12 | 4.4 µM |

Would you kindly look at the next entry?
query: Which TGI value is on record for `Cc1ccc(/C=C(\NC(=O)c2ccccc2)c2nc3ccccc3[nH]2)cc1` ?
result: > 100 µM
